tested target: CDK2/cyclin E (Homo sapiens)
Construct: made in house; host or cells: Sf9 insect cells, baculovirus co-infection
assay: CDK2/cyclin E kinase inhibition assay
Format: biochemical
measurement parameters: kinase inhibitory activity, 15 μM ATP, histone substrate
measurement label: IC50 (µM)

• CCC(CO)Nc1nc(NCc2cc(F)ccc2O)c2ncn(C(C)C)c2n1 (centres unmarked) [Compound 89] = 0.05
• CC(C)n1cnc2c(NCc3cc(Cl)ccc3O)nc(NCC(C)(C)O)nc21 [Compound 81] = 0.03
• CC(C)n1cnc2c(NCc3cc(Cl)ccc3O)nc(NC3CCCCC3N)nc21 (centres unmarked) [Compound 76] = 0.05
• CCC(CO)Nc1nc(NCc2cc(Cl)ccc2O)c2ncn(C(C)C)c2n1 (centres unmarked) [Compound 79] = 0.07
• CC(C)n1cnc2c(NCc3cc(Cl)ccc3O)nc(NC3CCC(N)CC3)nc21 (centres unmarked) [Compound 77] = 0.04
• CCC(CO)Nc1nc(NCc2cccc(OC)c2O)c2ncn(C(CC)CC)c2n1 (centres unmarked) [compound 237] = 0.04

(I) CCC(CO)Nc1nc(NCc2ccc(OC)cc2O)c2ncn(CC)c2n1 (centres unmarked) [Compound 73]
(II) COc1cccc(CNc2nc(NCC(C)O)nc3c2ncn3C(C)C)c1O (centres unmarked) [Compound 127]
(III) Cn1cnc2c(NCc3cc(F)ccc3O)nc(NC3CCCCC3N)nc21 (centres unmarked) [Compound 7]
Query: Order by IC50, ascending. Please reply with the labels ordered as requested. Many thanks.
Response: II, I, III

---

Tested on: p53
assay: p53-dependent transcription, β-galactosidase reporter in Arn8 cells
Type: cell-based, human
Design: key: induction of p53 protein: ++: very strong; +: weak; −: no effect
measurement parameters: Arn8 cells stable transfected with a β-galactosidase reporter gene
measurement label: p53 (effect): induction of p53 protein

Look over these answered cases.
- CCC(CO)Nc1nc(NCc2cc(Cl)ccc2O)c2ncn(C(C)C)c2n1 (centres unmarked): ++
- CC(C)C(CO)Nc1nc(NCc2cccc(O)c2O)c2ncn(C(C)C)c2n1 (centres unmarked): ++
- CCC(CO)Nc1nc(NCc2cc(C)ccc2O)c2ncn(C(C)C)c2n1 (centres unmarked): ++
- COc1cccc(CNc2nc(NC3CCCCC3N)nc3c2ncn3C(C)C)c1O (centres unmarked): ++
- CCC(CO)Nc1nc(NCc2cc(F)ccc2O)c2ncn(C(C)C)c2n1 (centres unmarked): ++

Query: Provide only the value of recorded p53 (effect): induction of p53 protein for CCC(CO)Nc1nc(NCc2cc(O)cc(O)c2)c2ncn(C(C)C)c2n1 (centres unmarked)
Response: +

Query: Provide only the value of recorded p53 (effect): induction of p53 protein for CCC(CO)Nc1nc(NCc2cccc(OC)c2O)c2ncn(C(C)C)c2n1 (racemic)
Response: ++

Query: Provide only the value of recorded p53 (effect): induction of p53 protein for CC[C@H](CO)Nc1nc(NCc2ccccc2)c2ncn(C(C)C)c2n1 [ROSC, roscovitine, reference compound]
Response: ++

Query: Provide only the value of recorded p53 (effect): induction of p53 protein for COc1cccc(CNc2nc(NC3CCC(N)CC3)nc3c2ncn3C(C)C)c1O (mixture of isomers)
Response: ++

Query: Provide only the value of recorded p53 (effect): induction of p53 protein for CC[C@H](CO)Nc1nc(NCc2ccccc2O)c2ncn(C(C)C)c2n1 [OCII, olomoucine II, reference compound]
Response: ++

Query: Provide only the value of recorded p53 (effect): induction of p53 protein for CCC(CO)Nc1nc(NCc2ccc(O)cc2O)c2ncn(C(C)C)c2n1 (centres unmarked)
Response: +

---

Tested on: MCF7 (human breast adenocarcinoma)
assay: Calcein AM cytotoxicity assay, MCF7
Type: cell-based
measurement parameters: MCF7, read-out: Cytotoxic activity IC50 (μM) MCF7
Consider the following molecules and their measured IC50 readings.
Reply numerically in µM, unit not repeated.

- CCC(CC)n1cnc2c(NCc3cc(F)ccc3O)nc(NC3CCCCC3N)nc21 (centres unmarked) [compound 226]: 4.1

Query: Provide only the value of recorded IC50 for NC1CCCCC1Nc1nc(NCc2cc(F)ccc2O)c2ncn(Cc3ccccc3)c2n1 (centres unmarked) [Compound 186]
Response: 6.9

Query: Provide only the value of recorded IC50 for NC1CCCCC1Nc1nc(NCc2cc(Cl)ccc2O)c2ncn(Cc3ccccc3)c2n1 (centres unmarked) [Compound 179]
Response: 8.7

Query: Provide only the value of recorded IC50 for COc1ccc(O)c(CNc2nc(NC3CCCCC3N)nc3c2ncn3C(C)C)c1 (centres unmarked) [Compound 143]
Response: 5

Query: Provide only the value of recorded IC50 for CCC(CC)n1cnc2c(NCc3cc(Cl)ccc3O)nc(NC3CCCCC3N)nc21 (centres unmarked) [compound 223]
Response: 4.8

Query: Provide only the value of recorded IC50 for CCn1cnc2c(NCc3cc(Cl)ccc3O)nc(NC3CCCCC3N)nc21 (centres unmarked) [Compound 47]
Response: 32

Query: Provide only the value of recorded IC50 for CCC(CO)Nc1nc(NCc2cc(O)cc(O)c2)c2ncn(C(C)C)c2n1 (centres unmarked) [Compound 123]
Response: 3.2

Query: Provide only the value of recorded IC50 for Cn1cnc2c(NCc3ccccc3)nc(NCCO)nc21 [OC]
Response: 133

---

tested target: CDK2/cyclin E (Homo sapiens, UniProt P24941)
Construct: made in house; host or cells: Sf9 insect cells, baculovirus co-infection
assay: CDK2/cyclin E kinase inhibition assay
Assay type: biochemical
measurement parameters: kinase inhibitory activity, 15 μM ATP, histone substrate
measurement label: IC50 (µM)

Look over these answered cases.
• CC(C)n1cnc2c(NCc3cc(Cl)ccc3O)nc(NCCC(C)(C)O)nc21 = 0.02
• COc1cccc(CNc2nc(NC3CCC(N)CC3)nc3c2ncn3C)c1O (stereo not drawn) = 0.22
• CCC(CO)Nc1nc(NCc2cc(Cl)ccc2O)c2ncn(C(CC)CC)c2n1 (stereo not drawn) = 0.09
• CC(C)n1cnc2c(NCc3cc(Cl)ccc3O)nc(NC(C)C(C)(C)O)nc21 (stereo not drawn) = 0.04
• CCn1cnc2c(NCc3cc(Cl)ccc3O)nc(NC3CCC(N)CC3)nc21 (stereo not drawn) = 0.14

(I) CC(C)n1cnc2c(NCc3cc(F)ccc3O)nc(NC3CCCCC3N)nc21 (stereo not drawn)
(II) CCC(CO)Nc1nc(NCc2cc(C)ccc2O)c2ncn(C(C)C)c2n1 (stereo not drawn)
Query: Hi, I'm comparing I with II and wondering which one has the bigger number for IC50. Any idea? Give the chosen item's label as your response.
Response: I
(I: 0.04 µM, II: 0.02 µM)

(a) CCC(CO)Nc1nc(NCc2cc(Cl)ccc2O)c2ncn(C)c2n1 (stereo not drawn)
(b) CCn1cnc2c(NCc3cc(F)ccc3O)nc(NC3CCC(N)CC3)nc21 (stereo not drawn)
(c) CCC(CO)Nc1nc(NCc2ccc(OC)cc2O)c2ncn(C(C)C)c2n1 (stereo not drawn)
(d) CCC(CC)n1cnc2c(NCc3cc(F)ccc3O)nc(NC3CCC(N)CC3)nc21 (stereo not drawn)
Query: Order by IC50, ascending. Please reply with the labels ordered as requested. Many thanks.
Response: d, c, b, a

---

System: K562 (human chronic myelogenous leukaemia)
assay: Calcein AM cytotoxicity assay, K562
Type: cell-based
measurement parameters: read-out: Cytotoxic activity IC50 (μM) K562
measurement label: IC50 (µM)
Reply numerically in µM, unit not repeated.

* CCn1cnc2c(NCc3cc(Cl)ccc3O)nc(NC3CCCCC3N)nc21 (centres unmarked) | 55

Query: Provide only the value of recorded IC50 for NC1CCCCC1Nc1nc(NCc2cc(F)ccc2O)c2ncn(Cc3ccccc3)c2n1 (centres unmarked)
Response: 15.4

Query: Provide only the value of recorded IC50 for Cn1cnc2c(NCc3ccccc3)nc(NCCO)nc21
Response: 163

Query: Provide only the value of recorded IC50 for CCC(CC)n1cnc2c(NCc3cc(F)ccc3O)nc(NC3CCCCC3N)nc21 (centres unmarked)
Response: 12.4

Query: Provide only the value of recorded IC50 for CCC(CC)n1cnc2c(NCc3cc(Cl)ccc3O)nc(NC3CCCCC3N)nc21 (centres unmarked)
Response: 17.6

Query: Provide only the value of recorded IC50 for COc1ccc(O)c(CNc2nc(NC3CCCCC3N)nc3c2ncn3C(C)C)c1 (centres unmarked)
Response: 13.1

Query: Provide only the value of recorded IC50 for NC1CCCCC1Nc1nc(NCc2cc(Cl)ccc2O)c2ncn(Cc3ccccc3)c2n1 (centres unmarked)
Response: 19.5

Query: Provide only the value of recorded IC50 for CCC(CO)Nc1nc(NCc2cc(O)cc(O)c2)c2ncn(C(C)C)c2n1 (centres unmarked)
Response: 5.3

---

Tested on: β-adrenergic receptors
assay: Modulation of the activity of β-adrenergic receptors (isoproterenol-induced cAMP synthesis in C6 glioma)
Type: cell-based
measurement parameters: rat C6 glioma, cAMP synthesis induced by 5 μM (−) isoproterenol, 30 min, simultaneous addition
measurement label: EFFECT: fold activation (modulation of the activity of β-adrenergic receptors)

Look over these answered cases.
• CCC(CO)Nc1nc(NCc2cc(O)cc(O)c2)c2ncn(C(C)C)c2n1 (stereo not shown) = 1.7-fold activation
• CCC(CO)Nc1nc(NCc2ccc(O)cc2O)c2ncn(C(C)C)c2n1 (stereo not shown) = 1.6-fold activation

Query: Provide EFFECT: fold activation (modulation of the activity of β-adrenergic receptors), tested on β-adrenergic receptors, for CC(C)C(CO)Nc1nc(NCc2cc(Cl)ccc2O)c2ncn(C(C)C)c2n1 (stereo not shown) .
Response: 1.8-fold activation

Query: Provide EFFECT: fold activation (modulation of the activity of β-adrenergic receptors), tested on β-adrenergic receptors, for CCC(CO)Nc1nc(NCc2cc(Cl)ccc2O)c2ncn(C(C)C)c2n1 (stereo not shown) .
Response: 1.5-fold activation

Query: Provide EFFECT: fold activation (modulation of the activity of β-adrenergic receptors), tested on β-adrenergic receptors, for CC(C)n1cnc2c(NCc3cc(Cl)ccc3O)nc(NCC(C)(C)O)nc21 .
Response: 1.7-fold activation

Query: Provide EFFECT: fold activation (modulation of the activity of β-adrenergic receptors), tested on β-adrenergic receptors, for CCC(CO)Nc1nc(NCc2cc(F)ccc2O)c2ncn(C(C)C)c2n1 (stereo not shown) .
Response: 1.9-fold activation

Query: Provide EFFECT: fold activation (modulation of the activity of β-adrenergic receptors), tested on β-adrenergic receptors, for CC(C)C(CO)Nc1nc(NCc2cc(O)ccc2O)c2ncn(C(C)C)c2n1 (stereo not shown) .
Response: 2.1-fold activation
